experiment: Toxic dose LD50 and lethal dose LD100; assay type: in vivo; conditions: in vivo, intraperitoneal
Property: LD50

>>> observed("CC(=O)O[C@@]12CO[C@@H]1C[C@H](O)[C@@]1(C)C(=O)[C@H](O)C3=C(C)[C@@H](OC(=O)[C@H](O)[C@@H](NC(=O)OC(C)(C)C)c4ccccc4)C[C@@](O)([C@@H](OC(=O)c4ccccc4)[C@H]21)C3(C)C")
"120 mg/kg"
